# target or system: urease enzyme (Canavalia ensiformis)
# Sequence (P07374 whole entry, looked up): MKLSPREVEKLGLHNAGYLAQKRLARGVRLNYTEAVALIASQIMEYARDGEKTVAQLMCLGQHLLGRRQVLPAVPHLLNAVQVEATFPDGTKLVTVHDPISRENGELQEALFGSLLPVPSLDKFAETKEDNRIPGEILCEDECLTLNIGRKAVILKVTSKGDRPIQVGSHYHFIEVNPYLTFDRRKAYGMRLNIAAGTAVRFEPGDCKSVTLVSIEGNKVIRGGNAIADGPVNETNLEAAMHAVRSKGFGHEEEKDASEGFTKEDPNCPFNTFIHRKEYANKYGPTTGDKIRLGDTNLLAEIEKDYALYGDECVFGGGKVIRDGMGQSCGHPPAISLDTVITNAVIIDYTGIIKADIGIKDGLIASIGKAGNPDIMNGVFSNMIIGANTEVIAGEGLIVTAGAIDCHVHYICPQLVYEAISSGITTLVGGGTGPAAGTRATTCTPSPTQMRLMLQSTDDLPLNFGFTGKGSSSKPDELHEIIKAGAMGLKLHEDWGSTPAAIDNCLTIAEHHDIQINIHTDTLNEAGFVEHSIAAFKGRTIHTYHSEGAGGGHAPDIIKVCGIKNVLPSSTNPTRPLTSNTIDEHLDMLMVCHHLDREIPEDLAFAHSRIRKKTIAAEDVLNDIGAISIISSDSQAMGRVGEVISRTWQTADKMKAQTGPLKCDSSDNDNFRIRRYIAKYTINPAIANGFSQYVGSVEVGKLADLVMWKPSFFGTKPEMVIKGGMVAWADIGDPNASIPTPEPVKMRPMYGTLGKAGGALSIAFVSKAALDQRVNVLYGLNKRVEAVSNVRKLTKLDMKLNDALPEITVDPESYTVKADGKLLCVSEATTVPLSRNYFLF
# run description: biochemical
# Type: biochemical
hey, just use rule met if measured IC50 is less than 300 µM, otherwise rule not met

A selection of reference data follows.
1) C#CCOc1ccc(F)cc1Br : rule met
2) C#CCOc1ccc(C(C)(C)c2ccc(OCC#C)cc2)cc1 : rule met
3) C#CCOc1cccc2ccccc12 : rule not met

Now take the following compound into account.
Just wondering, is IC50 of C#CCNc1cccc2ccccc12 below 300 µM?
rule not met

---

A collection of compounds and their measured Percentage scavenging activity at 100 ug/ml
# run description: Nitric oxide (NO) scavenging activity (sodium nitropruside / Griess reagent)
# measurement parameters: NO, 100 ug/ml
Provide the reading as a plain figure in %.

Examples from the recorded data:
1) C#CCOc1ccc(Br)cc1Br [Compound 2c, 2,4-dibromo-1-(prop-2-ynyloxy)benzene] : 77.03
2) C#CCOc1ccc(C)cc1Br [Compound 2d] : 69.95
3) C#CCOc1ccc(Br)cc1Cl [Compound 2a] : 76.09
4) C#CCOc1ccc2ccccc2c1 [Compound 6b, 2-(prop-2-ynyloxy)naphthalene] : 65.19
5) C#CCOc1cccc2ccccc12 [Compound 6a, 1-(prop-2-ynyloxy)naphthalene] : 63.17

Please report the recorded Percentage scavenging activity at 100 ug/ml for C#CCOc1ccc(S(=O)(=O)c2ccc(OCC#C)cc2)cc1 [Compound 4b] .
59

Another: C#CCOc1ccc([N+](=O)[O-])cc1 [Compound 2f, 1-nitro-4-(prop-2-ynyloxy)benzene]
47.01

Another: C#CCNc1ccc(Br)c(C)c1 [Compound 8c, 4-bromo-3-methyl-N-(prop-2-ynyl)aniline]
62.8

Another: C#CCOc1ccc(F)cc1Br [Compound 2e]
77.5

---

# run description: Nitric oxide (NO) scavenging activity (sodium nitropruside / Griess reagent)
# measurement parameters: NO, 100 ug/ml
A collection of molecules and their measured Percentage scavenging activity at 100 ug/ml
Provide the reading as a plain figure in %.

1) O=C1O[C@H]([C@@H](O)CO)C(O)=C1O [Vit.C control, Ascorbic acid, reference compound] : 84.1

Please report the recorded Percentage scavenging activity at 100 ug/ml for C#CCOc1ccc(Cl)cc1Br .
68.44

Another: C#CCNc1cccc2ccccc12
38.38

Another: C#CCOc1ccc(C(C)(C)c2ccc(OCC#C)cc2)cc1
74.53

---

# System: Bacillus subtillus
# run description: Antibacterial activity, disc diffusion method
# Assay type: cell-based
quantity measured: activity against Bacillus subtillus (in words)

1. C#CCOc1ccc(Br)cc1Cl : inactive
2. C#CCOc1ccc([N+](=O)[O-])cc1 : batter activity
3. C#CCOc1ccc(F)cc1Br : inactive
4. C#CCOc1ccc(Br)cc1Br : batter activity
5. C#CCOc1ccc(Cl)cc1Br : inactive

With those in mind, consider the next compound.
Please report the recorded activity against Bacillus subtillus (in words) for C#CCOc1ccc(C(C)(C)c2ccc(OCC#C)cc2)cc1 .
inactive

---

A collection of compounds and their measured inhibition at 50 µg/mL
# target or system: urease enzyme (Canavalia ensiformis)
# run description: biochemical
# Type: biochemical
# measurement parameters: read-out: Percentage inhibition at 50 ug/mL
Provide the reading as a plain figure in %.

Examples from the recorded data:
1. C#CCOc1ccc(Br)cc1Cl : 42.5
2. C#CCNc1ccc(Br)c(C)c1 : 32
3. C#CCNc1cccc2ccccc12 : 43
4. C#CCOc1ccc(S(=O)(=O)c2ccc(OCC#C)cc2)cc1 : 32
5. C#CCOc1ccc(C(C)(C)c2ccc(OCC#C)cc2)cc1 : 37

Notebook entry, urease enzyme (Canavalia ensiformis) assay: inhibition at 50 µg/mL of C#CCOc1ccc(Cl)cc1Br = ?
31.5

Another: C#CCOc1ccc([N+](=O)[O-])cc1
44

Another: C#CCOc1ccc(Br)cc1Br
36

Another: C#CCOc1cccc2ccccc12
41.3

Another: C#CCOc1ccc(C)cc1Br
30.3

Another: C#CCOc1ccc(F)cc1Br
40

Another: C#CCOc1ccc2ccccc2c1
32
